Source listed as the supplement of paper PMC10567573.

B1: SMARCE1 (parent)
chain: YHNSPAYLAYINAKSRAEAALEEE

variants of: B1; assay: protein stability index of a GFP-peptide fusion (GPS, HEK-293T) (PSI 1-6); higher = more stable; details: c terminus: a fixed tail appended;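 also: lentivirally expressed fusions sorted by FACS into six bins by GFP to DsRed ratio, PSI derived from sequencing read proportions per bin multiplied by bin number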
METRIC: protein stability index
// return a plain number; no unit text

CHAIN_SEQUENCE	protein stability index
THNSPAYLAYINAKSRAEAALEEE [Y1T]	5.26
YHNSPRYLAYINAKSRAEAALEEE [A6R]	2.14
YHNSPAYLFYINAKSRAEAALEEE [A9F]	1.94
YHNSPNYLAYINAKSRAEAALEEE [A6N]	1.81

Consider the variant YHNSPAYLAYINAKSFAEAALEEE [R16F] and give its measured protein stability index. 1.77

Consider the variant YHNSPAYLAFINAKSRAEAALEEE [Y10F] and give its measured protein stability index. 2.32

Consider the variant YHNSPAYLAYINAKSRAEAALEIE [E23I] and give its measured protein stability index. 2.79

Consider the variant YHNSPAYLAYINIKSRAEAALEEE [A13I] and give its measured protein stability index. 2.49

Consider the variant YHNSPAYLAYINAKSRWEAALEEE [A17W] and give its measured protein stability index. 2.17

Consider the variant YHNSPAYLAYINAKSRAEAAVEEE [L21V] and give its measured protein stability index. 2.67

Consider the variant YHNSPAYLAYINQKSRAEAALEEE [A13Q] and give its measured protein stability index. 2.83
